meta.source: patent US20260034094A1

TESTED TARGET: human recombinant GCL (Homo sapiens (Human), UniProt P48506)
Sequence (P48506 whole entry): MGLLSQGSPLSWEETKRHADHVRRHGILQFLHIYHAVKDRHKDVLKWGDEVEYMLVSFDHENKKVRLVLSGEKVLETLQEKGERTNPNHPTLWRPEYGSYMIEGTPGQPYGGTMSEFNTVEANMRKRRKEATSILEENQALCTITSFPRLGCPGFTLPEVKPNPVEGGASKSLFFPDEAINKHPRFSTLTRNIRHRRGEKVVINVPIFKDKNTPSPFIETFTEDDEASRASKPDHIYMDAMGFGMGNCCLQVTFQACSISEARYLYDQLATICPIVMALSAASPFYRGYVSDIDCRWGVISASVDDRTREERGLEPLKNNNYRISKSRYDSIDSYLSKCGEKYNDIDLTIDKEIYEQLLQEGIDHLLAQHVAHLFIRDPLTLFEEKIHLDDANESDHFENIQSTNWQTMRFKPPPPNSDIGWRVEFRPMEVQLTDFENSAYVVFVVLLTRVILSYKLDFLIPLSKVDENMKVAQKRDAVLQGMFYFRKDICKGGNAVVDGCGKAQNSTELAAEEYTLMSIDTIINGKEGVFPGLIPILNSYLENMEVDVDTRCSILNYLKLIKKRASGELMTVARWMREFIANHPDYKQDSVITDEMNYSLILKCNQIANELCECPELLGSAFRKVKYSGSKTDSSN
PROTOCOL TEXT: GCL enzyme profiling assay (ADP-Glo luminescence)
Format: biochemical
ASSAY CONDITIONS: human recombinant GCL 5 nM, 1 h preincubation with ATP; read-out: GCL IC50
PROPERTY NAME: IC50

Some entries whose results are on file:
COMPOUND	TESTED TARGET	IC50
N=S(=O)(CCc1ccccc1C1CC1)CC[C@H](N)C(=O)O (some centres unmarked) [Compound 34]	human recombinant GCL (Homo sapiens (Human), UniProt P48506)	20 to 2000 µM
N=S(=O)(CC[C@H](N)C(=O)O)CCC1(O)CCC1 (some centres unmarked) [Compound 153]	human recombinant GCL (Homo sapiens (Human), UniProt P48506)	20 to 2000 µM
CC(C)(C)CCS(=N)(=O)CC[C@H](N)C(=O)Nc1cccnc1 (some centres unmarked) [Compound 101]	human recombinant GCL (Homo sapiens (Human), UniProt P48506)	> 2000 µM

# IC50 (compound: N=S(=O)(CC[C@H](N)C(=O)O)C[C@H](O)c1ccccc1 (some centres unmarked) [Compound 46] ) is 20 to 2000 µM

# IC50 (compound: N=S(=O)(CCC1C2CC3CC(C2)CC1C3)CC[C@H](N)C(=O)O (some centres unmarked) [Compound 143] ) is 20 to 2000 µM
